Parameter Percent Effect: see the listing below.
Test system: Trypanosoma cruzi
EXPERIMENT NOTES: Trypanosoma cruzi phosphomannomutase and mannose-1-phosphate guanylyltransferase assay
Format: functional
Set-up: scale not given: direction of the effect not stated beside the values
MEASUREMENT PARAMETERS: 10 µM
ENDPOINT NAME: Percent Effect (%)

MOLECULE | TEST TARGET | NUMERIC VALUE
Cc1nc(CN(Cc2ccccc2)C2CCS(=O)(=O)C2)oc1C (centres undefined) | Trypanosoma cruzi | 5.32
CCOC(=O)CNC(=O)N1CCN(c2ncccn2)CC1 | Trypanosoma cruzi | 4.03
CC(C)c1nc(C(=O)NCCn2ccnc2)nn1-c1cccc(F)c1 | Trypanosoma cruzi | -3.46
CCc1cc(N2CCCNCC2)n2nc(C)c(C)c2n1 | Trypanosoma cruzi | -3.41
COc1ccnc(N2CCN(C(=O)NCc3ccc(C)s3)CC2)n1 | Trypanosoma cruzi | 4.6
CCOCC1CN(C(=O)CS(C)(=O)=O)Cc2cnn(C)c21 (centres undefined) | Trypanosoma cruzi | -3.28
CCN(CCC(F)(F)F)C(=O)Nc1cccc(N2CCOCC2)c1 | Trypanosoma cruzi | 2.12
COc1cc(NC(=O)c2cc(C)sc2C)c(C(=O)N(C)C)cc1OC | Trypanosoma cruzi | 4.42
Cc1ccoc1C(=O)N1CCO[C@H]2[C@H](OCCN(C)C)CC[C@@H]21 | Trypanosoma cruzi | -2.7
COc1cc(CC(O)CO)c(OC)c2c1OCO2 (centres undefined) | Trypanosoma cruzi | 6.29
CCOc1cc(C)nc(N2CCN(C(=O)CC)CC2)n1 | Trypanosoma cruzi | 0.836
Cc1ccc(S(=O)(=O)NC2CC2)cc1C | Trypanosoma cruzi | 0.875
CCc1nc(CN(C)C2CCN(Cc3ccc(C#N)cc3F)C2)no1 (centres undefined) | Trypanosoma cruzi | -6.7
COc1ccc(CN2CCC3(CC(=O)N(c4cncnc4)C3)C2)cc1 (centres undefined) | Trypanosoma cruzi | -3.81
CC(=O)c1cccc(OCCCC(=O)N(C)Cc2ccccn2)c1 | Trypanosoma cruzi | 4.25
CCc1ccc(C2CCCCCN2Cc2nc(CCOC)no2)o1 (centres undefined) | Trypanosoma cruzi | 3.05
CCc1ccccc1-n1nnc(C(=O)O)c1-c1ccccn1 | Trypanosoma cruzi | 1.85
CCCC(NC(=O)c1cc(C)ccc1C)c1nnn[nH]1 (centres undefined) | Trypanosoma cruzi | 7.89
N#Cc1cccnc1NCCNC(=O)N1CCCC(C(F)(F)F)C1 (centres undefined) | Trypanosoma cruzi | 4.83
CCC(O)CNC(=O)c1coc(COc2ccc3sc(C)nc3c2)n1 (centres undefined) | Trypanosoma cruzi | -0.392
Cc1ccsc1[C@@H]1CCN(C(=O)c2cc3ccccc3[nH]2)C[C@H]1O | Trypanosoma cruzi | -6.51
Cc1ccccc1C1CCCN1C(=O)CN1CC2(CCNCC2)OC1=O (centres undefined) | Trypanosoma cruzi | 6.76
COc1cccc(C)c1C(=O)N1C[C@@H](CN(C)C)[C@@H](CO)C1 | Trypanosoma cruzi | 2.26
Cc1nc(Nc2ncccn2)cc(C2CCCN2C2CCOCC2)n1 (centres undefined) | Trypanosoma cruzi | 0.593

* * *

Parameter Percent Effect: see the listing below.
TEST TARGET: Arginase-2, mitochondrial (Homo sapiens)
Sequence (whole entry): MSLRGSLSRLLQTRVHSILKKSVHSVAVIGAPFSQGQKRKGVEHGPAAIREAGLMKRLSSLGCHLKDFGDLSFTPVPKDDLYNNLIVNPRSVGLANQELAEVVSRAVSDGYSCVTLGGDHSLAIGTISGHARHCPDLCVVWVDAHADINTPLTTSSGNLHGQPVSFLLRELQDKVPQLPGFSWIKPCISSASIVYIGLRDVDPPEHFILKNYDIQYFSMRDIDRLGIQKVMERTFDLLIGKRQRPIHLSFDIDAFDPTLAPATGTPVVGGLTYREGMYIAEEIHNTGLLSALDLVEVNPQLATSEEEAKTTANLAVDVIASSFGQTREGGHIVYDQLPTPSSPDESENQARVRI
EXPERIMENT NOTES: in vitro enzyme assay to detect the production of urea directly proportional to the activity of Arginase II; note: in the data most compounds retested in dose-response had high values
Type: functional
Parameters: scale not given: direction of the effect not stated beside the values
MEASUREMENT PARAMETERS: 33.3 µM

MOLECULE | Percent Effect
Cc1ccccc1CC1(CO)CCCN(c2ncccc2C#N)C1 (configuration not stated) | 1.43%
COCCNc1nc(C2CCCC2)nc2c1CCNCC2 | 1.91%
Cc1cc(NC(=O)CCc2ccsc2)n(C)n1 | 3.97%
COc1ccc(CNC2CCN(CCc3ccncc3)CC2)cc1O | 26.7%
CC(O)CN1CCN(Cc2nnc(C3CC3)o2)CC1 (configuration not stated) | 4.56%
Cc1ccc2c(n1)N(C)CCN(C(=O)NC1CC1)C2 | -57.2%
Cc1cccc(NC(=O)Cn2ncc(SCC(N)=O)c(Cl)c2=O)c1C | 3.18%
CCOCC1CN(S(C)(=O)=O)Cc2ncn(CC3CC3)c21 (configuration not stated) | -1.24%
Cc1cc(CN(C)C(=O)c2cc3c([nH]c2=O)CCCC3=O)no1 | 5.73%
O=C(c1ccc[nH]1)N1CCn2cc(Cn3cncn3)nc2C1 | 3.03%
COCC1CN(Cc2ccncc2)Cc2nnn(CC3CC3)c21 (configuration not stated) | -1.38%
COc1c(CNC2CCN(C(C)(C)C)CC2)c(C(C)C)nn1C | -2.52%
